meta.source: the supplement of paper PMC10724198

Test system: Saccharomyces cerevisiae;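 further: PSI is a weighted mean of sequencing reads over stability bins, variants kept only with over 10 reads, mCherry proximal and sfGFP distal, peptide attached via GGGS linker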
assay notes: protein stability index of tFT-peptide fusion (C-terminal peptide) (PSI (0-1 scale)); higher = more stable (slower turnover)
measurement conditions: genetic background: wild type; temperature: 30 C
parameter: protein stability index
Please reply with the value in numeric form only.

Using the record for DVLCALYFGRSK , report its protein stability index. 0.707

Using the record for SPVPIPPSPSRP , report its protein stability index. 0.687

Tell me the measured protein stability index of QLETFGRDLTIP , please. 0.716

May I ask what protein stability index has been recorded for GPRSLVEITITD ? 0.669

Any idea what protein stability index was measured for GNRVGQREEIEK ? 0.655

# input sequence: IWGKREDKNVYR ; wanted: its protein stability index 0.71

What does the data say about its protein stability index? Entry: ARLAYESSPLPR 0.719

Recorded protein stability index for FSPYLYNIRTSL , please? 0.612

Using the record for LWSYFLGLHPSD , report its protein stability index. 0.773

Consider the sequence IGITWDVFLGLG and give its measured protein stability index. 0.705

// protein stability index lookup, key: WLGLGGARGCML 0.745

Need protein stability index, item RLPRHLPPAPAL 0.679

Please give the measured protein stability index for this sequence: PPVSHPSPFPLP 0.653

Would you mind telling me what protein stability index value was observed for KKNLHEQIGEAI ? 0.687

Fill in: protein stability index of GWWCGIGVAVSV is ___ 0.464

Item under review: TFPKKKGLLNIS . Reported protein stability index? 0.636

Requested read-out: protein stability index. Entry: FMLCCFPCWCVL 0.613

// query protein stability index value for entry KHEKGEKNKIEK 0.664

Fill in the blank: the reported protein stability index of VYTEFWERQGLL is ____. 0.796

Given the sequence IDSEVHLWKRSA , what is its reported protein stability index? 0.336

Fill blank: measured protein stability index of the sequence APPPPPSPRRPL is ____. 0.708

What protein stability index value was documented for this sequence, FFFGPPPCRSFF ? 0.731

Dear colleague, I am looking for the recorded protein stability index of the following sequence: MTLSCGVGLTVG 0.652

Sample CDEVEGVLLVRG — what was its protein stability index? 0.707

# input sequence: FSLLSFLLPLFP ; wanted: its protein stability index 0.787

May I ask what protein stability index has been recorded for NAHHSASPSHCF ? 0.647

Recorded protein stability index for QHRAIKIEIKIN , please? 0.091

Any idea what its protein stability index is? The sequence is GCASTNTPSTTP 0.714

Recorded protein stability index for WAGVTLRLRSAV , please? 0.682

Query (sequence): LDLCTVIRFVGI ; field requested: protein stability index 0.723

Requested read-out: protein stability index. Entry: EPPGWGRGTAQG 0.623

I would be grateful if you could share the reported protein stability index for RSSPPSPPLLSP . 0.611

For the sequence FGESGSGSKRCG , what protein stability index is on record? 0.701

Reported protein stability index, sequence RLEAVLCRRFLR : ____ 0.656

Which value of protein stability index has been reported for SFGLAPLSSFFC in the records? 0.705

Give the measured protein stability index of KREGEGLDWGEV . 0.709

Recorded protein stability index for VGNSLRCRGGWR , please? 0.628

Please look up its protein stability index: SPCPPPPAHPPR 0.728

Entry under review: MRPSLIKVFLTR . Reported protein stability index? 0.632

Reported protein stability index for LWGYFRTAASFV : what is it? 0.645

Quick check: protein stability index of TLAPPLPPPPLV ? 0.731

Any idea what protein stability index was measured for EISKKKKQTKRK ? 0.768

// lookup protein stability index for PQGGREYIYSPQ 0.718

So what does the record say about protein stability index for DCRATNTTWGLS ? 0.697

Can you share its protein stability index? I mean this sequence: LLEGSFFCGNSS 0.726

Suppose we examine the sequence RFGRGAVGGLGG ; what protein stability index value has been reported? 0.668

Fill blank: measured protein stability index of the sequence PFRSPYQRPLHY is ____. 0.689

GET /values?readout=protein stability index&item= YCSIQIQLVYGI 0.424

Bench note: what protein stability index did LPLHHYAHKFDL show? 0.746

Query: protein stability index; subject: WVEACVCRGFVG 0.698

Tell me the measured protein stability index of QSSWVGRWVRGG , please. 0.659

Name the recorded protein stability index for IRACGCSFLWVC . 0.192

Given the entry CTCTVSMLPRTC , report its measured protein stability index. 0.639

# input sequence: RVGTHDRTRAHG ; wanted: its protein stability index 0.601

Can you look up the measured protein stability index of PLHPPSLPPPPT for me? 0.732

I would be grateful if you could share the reported protein stability index for SFTSGFTDAGNI . 0.601

Fill blank: measured protein stability index of the sequence LKGSVGGVCHTC is ____. 0.709

Entry VVSFGRIGGVGR : reported protein stability index = ? 0.675

Fill in the blank: the reported protein stability index of ARSERVVPKMQS is ____. 0.732

Report protein stability index for PPPPLPFSPPDP please. 0.681

Form field: reported protein stability index of PPTFPPHSYLHP 0.652

Find the recorded protein stability index belonging to LPRFAPPNPALP and report it. 0.658

Reported protein stability index, sequence VLKGIVKQTRRG : ____ 0.685

# lookup: protein stability index of KKSKKHEKKKNK 0.711

Reported protein stability index for PTPPHPTSPPPP : what is it? 0.693

For the sequence LAARTKAQARHN , what protein stability index is on record? 0.652

Reported protein stability index, sequence GNIKPNEDRGGP : ____ 0.793

Record request: protein stability index value, item PLPLPLLPPPLP 0.764
